# test.target: T1, human big-ET-1 (SEQ ID NO:434) (Homo sapiens, UniProt P05305)
# T1 sequence (P05305 53-90 limits assumed): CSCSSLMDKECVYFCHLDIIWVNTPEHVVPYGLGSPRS
# test.details: Surface plasmon resonance (Biacore) binding, mAb capture format, 37° C.
# particulars: analyte human big-ET-1, mAb capture
assay.readout: kd (s⁻¹)
The figure you give is taken to be in s⁻¹; do not add the unit.

{"columns": ["molecule", "kd [s⁻¹]"],
 "data": [
  ["H1M6492N: anti-big-ET-1 hybridoma antibody, H1M Fc; HCVR/LCVR SEQ ID NO: 34/42 (antibody, V domains shown, mouse Fc) VH: EVQLVESGGGLVKPGGSLRVSCVASGFTFSNAWMTWVRQTPGKGLECVGRIKSRTDGGTVDYVAPVKGRFTISRDDSKNTLYLQMNSLKAEDTAVYYCRADLDYWGQGTLVTVSS VL: DVVMTQSPLSLPVSLGQPASISCRSSQSLVHSDGITYLNWFQQRPGQSPRRLIYKISNRDSGVPDRFSGSGSGTDFTLKFSRVEAEDVGVYFCMQGTHWPYTFGQGTKLEIK", 0.0016]
]}

Please look at the following molecule next.
Exercise: What does the record list as kd for H4H6323P: anti-big-ET-1 antibody, human IgG4 Fc; HCVR/LCVR SEQ ID NO: 146/154 (antibody, V domains shown, human IgG4 Fc) VH: QITLKESGPPLVKPTQTLTLTCTFSGFSLNTNGMGVGWIRQPPGKALEWLTLIYWNDDKRYSPSLKTRLTITKDTSKNQVVLTMTNMDPVDTATYYCARFGSGTYWGQGTLVTVSS VL: DIVMTQSPLSLPVTPGEPASISCRSSQSLLHSYGYNFLDWFLQKPGQSPQLLIYLGSHRASGVPDRFSGSGSGTDFTLKISRVEAEDVGVYYCMQALQTPLTFGGGTKVEIK ?
Solution: 0.00569
